All figures here come from patent US20250027068.

Target: pooled human IgG (human IgG1, 2, 3 and 4)
For each record, write down the corresponding Enzyme Activity Endpoint Assay: scIgG.
Give bare numbers, in ng/µL.

Field: example entries. Status: answers known.
| protein | measurement |
| --- | --- |
| PRT-262 (protein) MVTSVWTKGVTPPTNFTYGEDVLHAPYVANQGWYDITKTFNGKDNLLCGAATAGNMLHWWFDQNKEQIENYLKKHPEKQKINFNGEQLFDVKEAIDTKDSQLDSKLFEYFLEKAFPNLSTKHLGVFPDHVIDMFINGYRLSLLNHGPTPVKRGSKDKRGGIFDAVFTRGVQSKLLTNRHDFKEKTLKEISDLIKQELTEGKALGISHTYANVRINHVINLWGADFDAEGNLEAIAVTDSDTNASIGMKKYFVGVNSSGKVAISAKEIEEDNIGAQVLGLFTLSTGQDIWNQTN | 802 |
| PRT-408 (protein) MVTSVWTKGVTPPADFTQGEDVFHAPYVANQGWYDITKTFNGKDDLLCGAATAGNMLHWWFDQNKEYIEAYLKKHPEKQKIMFGDQELLDVRKAINTKGSQKNSELFNYFRDKAFPNLSARRLGVFPDLVLDMFINGYYLNVTKTQTTDVNRTYQEKDKRGGIFDAVFTRGDQSKLLTSRHDFKEKGLKEISDLIKQELTEGKALGLSHTYANVRINHVINLWGADFDSDGNLKAIYVTDSDSNASIGMKKYFVGVNSAGKVAISAKEIKEDNIGAQVLGLFTLSTGQDIWNQTN | 0 |
| PRT-586 (protein) MANQEIRYSEETPKTITSVWTKGVTPPTDFIYNEDVLHAPYIANQGWYDITKTFNGKDDLLCGAATAGNMLHWWFDQNKEQIERYLKKHPEKQKINFNGEQMFDVKEAIDTKDSQTDSKLFEYFKDKAFPYLSTKHLGVFPDHVIDMFINGYRLSLTNHGPTPVKRGTKDPRGGIFDAVFTRGDQSKLLTSRHDFKEKTLNEISDLIKQELTEGKALGLSHTYANVRINHVINLWGADFNAEGNLEAIYVTDSDSNASIGMKKYYVGVNSAGKVAISAKEIEGDNIGAQVLGLFTLSTGQDIWEQTNLEHHHHHH | 458 |
| PRT-547 (protein) MANQEIRYSEETPKTITSVWTKGVTPPTDFIQNEDVLHAPYIANQGWYDITKTFNGKDDLLCGAATAGNMLHWWFDQNKEEIENYLKKHPEKQKINFNGEQMFDVKEAIDTKDSQTDSALFEYFKDKAFPYLSTKHLGVFPDHVIDMFINGYRLSLTNHGPTPVKRGTKDPRGGIFDAVFTRGDQSKLLTARHDFKEKTLNEISDLIKQELTEGKALGLSHTYANVRINHVINLWGADFNSEGNLEAIYVTDSDSNASIGMKKYYVGVNAAGKVAISAKEIEGDNIGAQVLGLFTLSTGQDIWEQTNLEHHHHHH | 256 |
| PRT-406 (protein) MVTSVWTKGVTPPADFTQGEDVFHAPYVANQGWYDITKTFNRKDDLLCGAATAGNMLHWWFDQNKEYIEAYLKKHPEKQKIMFGDQELLDVRKAINTKGSQKNSELFNYFRDKAFPNLSARRLGVMPDLVLDMFINGYYLNVTKTQTTDVNRTYQEKDKRGGIFDAVFTRGDQSKLLTSRHDFKEKGLKEISDLIKQELTEGKALGLSHTYANVRINHVINLWGADFDSDGNLKAIYVTDSDSNASIGMKKYFVGVNSAGKVAISAKEIKEDNIGAQVLGLFTLSTGQDIWNQTN | 108 |
| PRT-523 (protein) MITSVWTKGVTPPTDFIKGEDVFHAPYKAGQGWYDITKTFNGKDNLLCGAATAGNMLHWWFDQNKEEIEAYLKKHPEKQKIIFNNQELFDLKAVINTKDSQTNSALFNYFKDKAFPNLSARRLGVFPDLVLDMFINGYYLNVYKTQTTDVNRTYQTKDRRGGIFDAVFTRGVQSKLLTERHDLKNKTLKEISDLIKQELTEGKALGLSHTYANVRINHVINLWGADFDSNGNLEAIYVTDSDTNASIGMKKYFVGVNSAGKVAISAKEIKEDNIGAQVLGLFTLSTGQDIWNQTNLEHHHHHH | 0 |
| PRT-439 (protein) MSQTEDSESLQRLRDIEDFQAEKKKQNVVYTKWLDGVDVKDHDFRKIVDGNIAYYATPLLNGRGFYDINKDFNRDSDKCAAAVAANMFHYWLDRNRDNVDRFLRQNPEKHGIIELPDGQLKLSDFLNTYESDDGYRDKSKLFDFISNNFNGPVWTDKLLDNYINGYAYNYKYGRLIEDPTKNTSKINFFKEVFNEKILTNNHSIRNQNEFSVLLSEALYTGKAIGLSYGPAGLRHSLGHIISVWGADLDADGNVVAIYVTDSDDKKLTIGDERVGLKRYKISTDDEGRLRLTAYEETHNTGGQIRGLWTLDTGKQAWADYFDKTEQTGTDQAEQ | 528 |

// Enzyme Activity Endpoint Assay: scIgG lookup, key: PRT-416 (protein) MTITSVWTKGVTPPTPEDFRYNNEDVLHAPYVANQGWYDITKTFDGKDNLLCGAATAGNMLHWWFDQNKEEIERYLKKHPEKQKIIFNNQELFDVKAAIDTKDSQTNSKLFNYFRDKAFPNLSARQLGVMPDLVLDMFINGYYLNLPKTQSTDVNRPYQDKDKRGGIFDAVFTRGDQTTLLTARHDLKNKGLNEISDLIKQELTEGKALALSHTYANVRINHVINLWGADFDAEGNLIAIYVTDSDANASIGMKKYFVGVNANGKVAISAKKIEGDNIGAQVLGLFTLSTGQDIWQKLS 453
